Data credit: patent US9662339B2

The listing below reports pIC50 for compounds tested on human LTA4 hydrolase (Homo sapiens (Human), UniProt P09960).
Sequence (P09960 whole entry): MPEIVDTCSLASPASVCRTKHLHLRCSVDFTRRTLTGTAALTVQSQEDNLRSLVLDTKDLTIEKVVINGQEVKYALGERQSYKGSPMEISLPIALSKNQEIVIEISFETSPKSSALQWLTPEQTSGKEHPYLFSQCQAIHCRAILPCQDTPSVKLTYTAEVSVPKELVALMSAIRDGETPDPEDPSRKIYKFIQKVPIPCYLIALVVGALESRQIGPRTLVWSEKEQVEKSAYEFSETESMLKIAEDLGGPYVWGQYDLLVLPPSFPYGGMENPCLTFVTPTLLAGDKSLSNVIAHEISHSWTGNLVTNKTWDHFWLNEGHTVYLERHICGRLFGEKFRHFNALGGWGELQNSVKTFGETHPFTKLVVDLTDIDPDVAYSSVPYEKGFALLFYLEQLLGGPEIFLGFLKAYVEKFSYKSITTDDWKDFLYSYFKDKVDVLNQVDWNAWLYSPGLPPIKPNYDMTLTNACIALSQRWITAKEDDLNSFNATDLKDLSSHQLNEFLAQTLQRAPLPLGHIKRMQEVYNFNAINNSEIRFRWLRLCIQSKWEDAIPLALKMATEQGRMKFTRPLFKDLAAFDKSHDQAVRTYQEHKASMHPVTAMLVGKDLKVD
The value called pIC50 is obtained by taking minus log10 of the concentration in mol/L.

Consider the following illustrative entries.
compound	system tested	pIC50
O=C1NCCC12CCN(Cc1ccc(C3COc4ccccc4O3)cc1)CC2 (stereo not shown)	human LTA4 hydrolase (Homo sapiens (Human), UniProt P09960)	9.13
O=S1(=O)CCN(Cc2ccc(C3COc4cccnc4O3)cc2)CC1 (racemic)	human LTA4 hydrolase (Homo sapiens (Human), UniProt P09960)	9.11
CCN(CC)Cc1ccc(C2COc3ccccc3O2)cc1 (stereo not shown)	human LTA4 hydrolase (Homo sapiens (Human), UniProt P09960)	9.05
CN(C)C(=O)C1CCN(Cc2ccc(C3COc4ccccc4O3)cc2)CC1 (stereo not shown)	human LTA4 hydrolase (Homo sapiens (Human), UniProt P09960)	9.09
CN1CCCN(Cc2ccc(C3COc4ccccc4O3)cc2)CC1 (stereo not shown)	human LTA4 hydrolase (Homo sapiens (Human), UniProt P09960)	8.75

Q. Using the record for CNC(=O)C1CCN(Cc2ccc(C3COc4ccccc4O3)cc2)CC1 (racemic) , report its pIC50.
A. 9.12

Q. Using the record for NC(=O)C1CCCN(Cc2ccc(C3COc4ccccc4O3)cc2)C1 (stereo not shown) , report its pIC50.
A. 9.11
